FYI, the data here is from patent EP0604355B1.

- measured on: reuptake of dopamine in synaptosomes of rat forebrain (Rattus norvegicus, UniProt P23977)
- Sequence (P23977 whole entry): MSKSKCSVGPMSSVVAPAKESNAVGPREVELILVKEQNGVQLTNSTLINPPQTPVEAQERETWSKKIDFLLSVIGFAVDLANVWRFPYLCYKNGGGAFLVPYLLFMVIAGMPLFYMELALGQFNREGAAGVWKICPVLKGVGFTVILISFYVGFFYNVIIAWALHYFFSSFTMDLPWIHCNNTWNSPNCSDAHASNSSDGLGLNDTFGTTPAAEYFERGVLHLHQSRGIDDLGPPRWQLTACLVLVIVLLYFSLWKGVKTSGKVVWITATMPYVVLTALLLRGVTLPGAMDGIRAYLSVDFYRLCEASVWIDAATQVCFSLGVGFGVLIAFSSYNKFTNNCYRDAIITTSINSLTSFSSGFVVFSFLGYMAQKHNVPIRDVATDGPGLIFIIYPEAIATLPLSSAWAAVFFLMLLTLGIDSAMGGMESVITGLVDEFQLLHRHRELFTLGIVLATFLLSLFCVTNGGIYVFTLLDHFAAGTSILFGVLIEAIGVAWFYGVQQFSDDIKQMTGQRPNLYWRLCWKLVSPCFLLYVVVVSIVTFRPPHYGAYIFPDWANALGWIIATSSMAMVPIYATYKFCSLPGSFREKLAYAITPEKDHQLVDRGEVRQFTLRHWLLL
- method notes: biochemical
Counter-ions that a name gives are not always drawn.
quantity: IC50 (nM)
Hi! Could you send only the number? It should be in nM, unit omitted.

Known IC50 results, listed for orientation:
[
  {
    "molecule": "CN1[C@H]2CC[C@@H]1[C@H](c1nc(-c3ccccc3)no1)[C@@H](c1ccc3ccccc3c1)C2 [hydrochloride]",
    "IC50 [nM]": 540
  },
  {
    "molecule": "Cc1ccc([C@H]2C[C@@H]3CC[C@H]([C@@H]2c2nc(-c4ccccc4)no2)N3C)cc1 [hydrochloride]",
    "IC50 [nM]": 960
  }
]

Now let's try a different one.
Name the recorded IC50 of the molecule listed here: CN1[C@H]2CC[C@@H]1[C@H](c1nc(-c3ccccc3)no1)[C@@H](c1ccc(Cl)cc1)C2 [hydrochloride] 330
